# system-under-test: T1, EsCas13d, nuclease-dead (Eubacterium siraeum, UniProt B0MS50, R295A;H300A;R849A;H854A)
# T1 sequence: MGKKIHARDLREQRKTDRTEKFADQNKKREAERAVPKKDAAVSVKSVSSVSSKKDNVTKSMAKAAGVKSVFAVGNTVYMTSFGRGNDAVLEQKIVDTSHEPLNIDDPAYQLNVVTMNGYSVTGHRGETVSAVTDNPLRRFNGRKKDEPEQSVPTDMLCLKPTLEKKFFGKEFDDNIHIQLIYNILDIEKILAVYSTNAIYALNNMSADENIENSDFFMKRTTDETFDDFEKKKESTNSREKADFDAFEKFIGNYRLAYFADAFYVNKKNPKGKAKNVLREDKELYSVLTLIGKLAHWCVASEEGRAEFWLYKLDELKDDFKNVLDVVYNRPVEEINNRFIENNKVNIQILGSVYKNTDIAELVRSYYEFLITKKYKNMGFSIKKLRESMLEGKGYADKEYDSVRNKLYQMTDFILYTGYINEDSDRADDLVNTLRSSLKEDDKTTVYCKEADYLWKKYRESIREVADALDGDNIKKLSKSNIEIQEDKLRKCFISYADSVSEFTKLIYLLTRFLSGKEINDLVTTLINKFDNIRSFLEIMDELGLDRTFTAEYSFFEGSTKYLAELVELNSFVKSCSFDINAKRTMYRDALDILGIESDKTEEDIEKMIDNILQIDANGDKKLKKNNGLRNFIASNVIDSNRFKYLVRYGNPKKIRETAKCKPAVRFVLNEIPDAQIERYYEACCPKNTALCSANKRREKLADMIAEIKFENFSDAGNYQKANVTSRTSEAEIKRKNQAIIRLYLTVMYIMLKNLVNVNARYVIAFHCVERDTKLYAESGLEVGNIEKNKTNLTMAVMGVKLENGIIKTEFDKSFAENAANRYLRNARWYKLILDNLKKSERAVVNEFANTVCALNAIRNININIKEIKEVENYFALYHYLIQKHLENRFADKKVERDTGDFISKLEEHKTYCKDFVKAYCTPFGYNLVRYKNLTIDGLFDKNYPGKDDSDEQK
# procedure-summary: crRNA (strand 1, pre-loaded); Mg2+; 40 mM Tris-HCl pH 7.5, 150 mM NaCl, 6 mM MgCl2, 1 mM DTT, 0.1% Tween-20, 0.2 mg/ml BSA; 25 C; 10 min per concentration, then washed
# test-context: tags: His6-TwinStrep-SUMO cleaved; N-terminal SNAP kept (SNAP-Surface 488); label: 3' end held by stalled T7 RNA polymerase

- binder: "target 1 insG 3' of 14,insA 3' of 6 (mixed) RNA 1: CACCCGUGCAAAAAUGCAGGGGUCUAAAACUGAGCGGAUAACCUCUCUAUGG RNA 2: GGGAAUGGAUCCACAUCUACGAAUUCGUACCAUAGAGAGGGUUAUCCAGCUCACCGAGAUCGGAAGAGCACACGU"
  Kd: "14.6 nM"
- binder: "target 1 insA 3' of 19,insG 3' of 16 (mixed) RNA 1: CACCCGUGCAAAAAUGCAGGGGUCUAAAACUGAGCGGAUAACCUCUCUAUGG RNA 2: GGGAAUGGAUCCACAUCUACGAAUUCGUACCAUAAGAGGAGGUUAUCCGCUCACCGAGAUCGGAAGAGCACACGU"
  Kd: "46 nM"
